Where do the numbers come from? From the supplement of paper PMC13172266.

test system: U2932 TK216-resistant clone 3; assay: cell proliferation relative to vehicle (% of vehicle); higher = less growth inhibition; conditions: 50 nM; 72 h
Classify by measured cell proliferation: True if it is equal to or exceeds 100, False if it is smaller.

Query :: Is reported cell proliferation greater than or equal to 100 here: CC(=O)OC(C)(C)/C=C/C(=O)[C@](C)(O)[C@H]1[C@H](O)C[C@@]2(C)[C@@H]3CC=C4[C@H](C[C@H](O)C(=O)C4(C)C)[C@]3(C)C(=O)C[C@]12C
Result :: False

Query :: Is reported cell proliferation greater than or equal to 100 here: COc1cc2c(cc1OC)C1CC(=O)C(CC(C)C)CN1CC2 (stereo not given)
Result :: True

Query :: Is reported cell proliferation greater than or equal to 100 here: Cc1sc2c(c1C)C(c1ccc(Cl)cc1)=N[C@@H](CC(=O)OC(C)(C)C)c1nnc(C)n1-2
Result :: False

Query :: Is reported cell proliferation greater than or equal to 100 here: CC1=C(O)C(=O)C=C2C1=CC=C1[C@@]2(C)CC[C@@]2(C)[C@@H]3C[C@](C)(C(=O)O)CC[C@]3(C)CC[C@]12C
Result :: False

Query :: Is reported cell proliferation greater than or equal to 100 here: COc1ccc(C[C@H]2NC[C@H](O)[C@H]2OC(C)=O)cc1
Result :: False

---

Answer each item with its documented cell proliferation.
system: U2932 parental; assay: cell proliferation relative to vehicle (% of vehicle); higher = less growth inhibition; settings: 50 nM; 72 h
Give your answer as a number; write no unit.

Query :: Please look up its cell proliferation: Cc1sc2c(c1C)C(c1ccc(Cl)cc1)=N[C@@H](CC(=O)OC(C)(C)C)c1nnc(C)n1-2
Result :: 92.1

Query :: Please look up its cell proliferation: O=C(O)CCCc1ccc(N(CCCl)CCCl)cc1
Result :: 99.7

Query :: Please look up its cell proliferation: O=S(=O)(CC1CS1)c1ccc(Oc2ccccc2)cc1 (stereo not drawn)
Result :: 95.5

---

test system: U2932 TK216-resistant clone 3; experiment: cell proliferation relative to vehicle (% of vehicle); higher = less growth inhibition; conditions: 500 nM; 72 h
Classify by measured cell proliferation: true if it is equal to or exceeds 100, false if it is smaller.

Query :: Is reported cell proliferation greater than or equal to 100 here: O=S(=O)(CC1CS1)c1ccc(Oc2ccccc2)cc1 (stereo not drawn)
Result :: true

Query :: Is reported cell proliferation greater than or equal to 100 here: CC1=C(O)C(=O)C=C2C1=CC=C1[C@@]2(C)CC[C@@]2(C)[C@@H]3C[C@](C)(C(=O)O)CC[C@]3(C)CC[C@]12C
Result :: false

---

system: U2932 TK216-resistant clone 2; test: cell proliferation relative to vehicle (% of vehicle); higher = less growth inhibition; conditions: 500 nM; 72 h
Structures can show the parent of a compound that is named as a salt.
quantity: cell proliferation
Give your answer as a number; write no unit.

Query :: Please look up its cell proliferation: CC(O)(CS(=O)(=O)c1ccc(F)cc1)C(=O)Nc1ccc(C#N)c(C(F)(F)F)c1 (centres undefined) [Bicalutamide]
Result :: 104

Query :: Please look up its cell proliferation: COc1cc2c(cc1OC)C1CC(=O)C(CC(C)C)CN1CC2 (centres undefined) [Tetrabenazine (Xenazine)]
Result :: 96.2

Query :: Please look up its cell proliferation: Cn1cc(C2=C(c3cn(C4CCN(Cc5ccccn5)CC4)c4ccccc34)C(=O)NC2=O)c2ccccc21
Result :: 103

Query :: Please look up its cell proliferation: Cn1c(CCCC(=O)O)nc2cc(N(CCCl)CCCl)ccc21 [Bendamustine HCl]
Result :: 108

---

system: U2932 TK216-resistant clone 2; test: cell proliferation relative to vehicle (% of vehicle); higher = less growth inhibition; conditions: 500 nM; 72 h
quantity: cell proliferation
Give your answer as a number; write no unit.

Query :: Please look up its cell proliferation: O=S(=O)(CC1CS1)c1ccc(Oc2ccccc2)cc1 (stereo not drawn)
Result :: 97.6

Query :: Please look up its cell proliferation: Cc1sc2c(c1C)C(c1ccc(Cl)cc1)=N[C@@H](CC(=O)OC(C)(C)C)c1nnc(C)n1-2
Result :: 58.9

Query :: Please look up its cell proliferation: CC1=C(O)C(=O)C=C2C1=CC=C1[C@@]2(C)CC[C@@]2(C)[C@@H]3C[C@](C)(C(=O)O)CC[C@]3(C)CC[C@]12C
Result :: 18.8

---

test system: U2932 parental; assay: cell proliferation relative to vehicle (% of vehicle); higher = less growth inhibition; conditions: 500 nM; 72 h
Answer each item with its documented cell proliferation.
Give your answer as a number; write no unit.

Query :: Please look up its cell proliferation: O=C(O)C(=O)c1cn(Cc2ccccc2)c2ccc(-c3ccc(OC(F)(F)F)cc3)cc12
Result :: 99.3

Query :: Please look up its cell proliferation: C/C(=C\c1csc(C)n1)[C@@H]1C[C@@H]2O[C@@H]2CCC[C@H](C)[C@H](O)[C@@H](C)C(=O)C(C)(C)[C@@H](O)CC(=O)O1
Result :: 10.1

Query :: Please look up its cell proliferation: Cn1cc(C2=C(c3cn(C4CCN(Cc5ccccn5)CC4)c4ccccc34)C(=O)NC2=O)c2ccccc21
Result :: 107

---

system: U2932 TK216-resistant clone 2; experiment: cell proliferation relative to vehicle (% of vehicle); higher = less growth inhibition; conditions: 50 nM; 72 h
Structures can show the parent of a compound that is named as a salt.
Answer each item with its documented cell proliferation.
Give your answer as a number; write no unit.

Query :: Please look up its cell proliferation: Cn1c(CCCC(=O)O)nc2cc(N(CCCl)CCCl)ccc21 [Bendamustine HCl]
Result :: 111

Query :: Please look up its cell proliferation: Cn1cc(C2=C(c3cn(C4CCN(Cc5ccccn5)CC4)c4ccccc34)C(=O)NC2=O)c2ccccc21
Result :: 110

Query :: Please look up its cell proliferation: O=C(O)C(=O)c1cn(Cc2ccccc2)c2ccc(-c3ccc(OC(F)(F)F)cc3)cc12 [Tiplaxtinin (PAI-039)]
Result :: 99.5

Query :: Please look up its cell proliferation: O=S(=O)(CC1CS1)c1ccc(Oc2ccccc2)cc1 (stereo not drawn)
Result :: 102

Query :: Please look up its cell proliferation: C/C(=C\c1csc(C)n1)[C@@H]1C[C@@H]2O[C@@H]2CCC[C@H](C)[C@H](O)[C@@H](C)C(=O)C(C)(C)[C@@H](O)CC(=O)O1 [Epothilone A]
Result :: 12.4

Query :: Please look up its cell proliferation: COc1cc2c(cc1OC)C1CC(=O)C(CC(C)C)CN1CC2 (stereo not drawn) [Tetrabenazine (Xenazine)]
Result :: 101

Query :: Please look up its cell proliferation: CC(=O)OC(C)(C)/C=C/C(=O)[C@](C)(O)[C@H]1[C@H](O)C[C@@]2(C)[C@@H]3CC=C4[C@H](C[C@H](O)C(=O)C4(C)C)[C@]3(C)C(=O)C[C@]12C [Cucurbitacin B]
Result :: -2.74

Query :: Please look up its cell proliferation: CC1=C(O)C(=O)C=C2C1=CC=C1[C@@]2(C)CC[C@@]2(C)[C@@H]3C[C@](C)(C(=O)O)CC[C@]3(C)CC[C@]12C [Celastrol]
Result :: 77.9

---

Answer each item with its documented cell proliferation.
system: U2932 parental; experiment: cell proliferation relative to vehicle (% of vehicle); higher = less growth inhibition; details: 50 nM; 72 h
Where a name gives a salt, the structure may show the parent alone.
Give your answer as a number; write no unit.

Query :: Please look up its cell proliferation: Cn1cc(C2=C(c3cn(C4CCN(Cc5ccccn5)CC4)c4ccccc34)C(=O)NC2=O)c2ccccc21
Result :: 103

Query :: Please look up its cell proliferation: C/C(=C\c1csc(C)n1)[C@@H]1C[C@@H]2O[C@@H]2CCC[C@H](C)[C@H](O)[C@@H](C)C(=O)C(C)(C)[C@@H](O)CC(=O)O1 [Epothilone A]
Result :: 9.49

Query :: Please look up its cell proliferation: O=C(O)C(=O)c1cn(Cc2ccccc2)c2ccc(-c3ccc(OC(F)(F)F)cc3)cc12 [Tiplaxtinin (PAI-039)]
Result :: 102

Query :: Please look up its cell proliferation: O=P1(NCCCl)OCCCN1CCCl (configuration not stated) [Ifosfamide]
Result :: 103

Query :: Please look up its cell proliferation: N[C@@H]1C[C@H]1c1ccccc1 [Tranylcypromine (2-PCPA) HCl]
Result :: 101

Query :: Please look up its cell proliferation: CC(=O)OC(C)(C)/C=C/C(=O)[C@](C)(O)[C@H]1[C@H](O)C[C@@]2(C)[C@@H]3CC=C4[C@H](C[C@H](O)C(=O)C4(C)C)[C@]3(C)C(=O)C[C@]12C [Cucurbitacin B]
Result :: -0.672

Query :: Please look up its cell proliferation: CC(O)(CS(=O)(=O)c1ccc(F)cc1)C(=O)Nc1ccc(C#N)c(C(F)(F)F)c1 (configuration not stated) [Bicalutamide]
Result :: 102
